Can you tell me GI50 for the items I'm about to list?
system: NCI-H226; experiment: NCI tumour cell line growth inhibition, 48 h
The source made the active and inactive calls. Cut-off read from the data, not from the text of the source: active = GI50 up to about 1.1 µM and inactive = higher. Where a SMILES comes first, the peptide text is derived from it. [ ]: non-standard residue; d: D form. The star is where a group is joined. Phe(4-NO2) = N[CH](Cc1ccc([N+](=O)[O-])cc1)C(=O)O; Boc = CC(C)(C)OC(=O)*; OtBu = CC(C)(C)O*

Worked cases, answers included:
molecule="O=C1CSC(c2cccc([N+](=O)[O-])c2)N1c1ccc(-n2c(-c3ccccc3)nc3ccccc3c2=O)cc1 (centres undefined)" reportedmeasurement="> 100 µM (inactive)"
molecule="COC(=O)C(Cc1ccc([N+](=O)[O-])cc1)NC(=O)C(CC(=O)OC(C)(C)C)NC(=O)OC(C)(C)C (centres undefined) (Boc-Asp(OtBu)-[Phe(4-NO2)]-OMe; configuration not given here)" reportedmeasurement="> 100 µM (inactive)"
molecule="C[N+]1(CCC[N+]2(C)CC3C4C=CC(CC4)C3C2)CCOCC1 (centres undefined)" reportedmeasurement="> 100 µM (inactive)"

Items follow; give GI50 for each.
1. Nc1c(-c2ccc(Br)cc2)[n+]([O-])c2ccccc2[n+]1[O-]
2. Clc1ccc(-c2c(C3=NCCCN3)nnn2-c2ccc(Cl)cc2)cc1
3. COC(=O)C(C(=O)C(=O)Nc1cccc(C)c1)C1=NC(N)SS1 (centres undefined)

> 100 µM (inactive)
60.3 µM (inactive)
> 100 µM (inactive)

Hi there! I need GI50 for each item below, if you can.
1. C=C(C(=O)O)[C@@H]1C[C@@H]2O[C@H]1[C@@H](O)[C@@H](C)CCCC(C)=CCC[C@@]2(C)O
2. CNc1nc(=S)[nH]c2sc3c(c12)CCCC3
3. CCCC(CC)c1cc(O)c(O)cc1C(CC)CCC (centres undefined)

1. > 100 µM (inactive)
2. > 75 µM (inactive)
3. > 10 µM (inactive)

* * *

system: UACC-257; test: NCI tumour cell line growth inhibition, 48 h
The source made the active and inactive calls. Cut-off read from the data, not from the text of the source: active = GI50 up to about 1.1 µM and inactive = higher.
Answer with one of the outcomes Yes (active), No (inactive)

compound=CCC(=O)OC[n+]1ccc2c(C)c3[nH]c4ccccc4c3c(C)c2c1 experimentalsystem=UACC-257 answerlabel=No
compound=COc1ccc(Oc2ccccc2N)cc1 experimentalsystem=UACC-257 answerlabel=No
compound="COc1cc2c(cc1OC)C(SC)C(=O)N(Cc1cccc(OC)c1OC)CC2 (configuration not stated)" experimentalsystem=UACC-257 answerlabel=No
compound=Cc1cc(C)n(CN(Cn2nc(C)cc2C)c2ccc(N(Cn3nc(C)cc3C)Cn3nc(C)cc3C)cc2)n1 experimentalsystem=UACC-257 answerlabel=No
compound=CC(C)(CN)SCc1ccccc1 experimentalsystem=UACC-257 answerlabel=No

What was the test verdict on CC(C)(CO)CNc1nc(N)nc(Cl)c1C=O ?
No

State the result this test recorded for COC1(OC)C2(Cl)C3=CCCC=C3C1(Cl)C(Cl)=C2Cl .
No

Please state the recorded outcome for this compound: C=C(C(=O)O)[C@@H]1C[C@@H]2O[C@H]1[C@@H](O)[C@@H](C)CCCC(C)=CCC[C@@]2(C)O
No

Tell me the assay call for Cn1/c(=N\S(=O)(=O)c2ccccc2)[nH]c2ccccc21 please.
No

Each compound tested received a call. Report the one for COc1cc(/C=C\c2ccc(O)cc2)cc(OC)c1OC .
No

Please indicate how the test categorized CNc1nc(=S)[nH]c2sc3c(c12)CCCC3 .
No

Assay result, entry Cc1ccc2c(c1C)CC1(Cc3c(C)ccc(C)c3C1=O)C2=O (configuration not stated) — outcome?
No

Tell me the assay call for CCCCCCCCCCCCCC(=O)O[C@H]1CC[C@H](NC(=O)[C@H](OC)[C@H](O)[C@@H](O)[C@H](O)/C=C/C(C)C)C(=O)NC1 [BENGAMIDE A] please.
Yes

Fill in: this test's call for O=c1[nH]nc(Cc2ccc(Cl)cc2)n1O is ___
No

Which outcome was entered for the compound CC(C)(C)c1cc(C(=O)O)c2c(c1)C(=O)OC2(c1ccccc1)c1ccccc1C(=O)O (configuration not stated) in this test?
No

Record request — test call for COc1ccc(Cn2c(=O)c(OC)c(C)c3cc4ccccc4cc32)cc1
No

Entry COC1=C2CC(C)CC(OC)[C@@H](OC(=O)CCN)[C@H](C)/C=C(\C)C(OC(N)=O)C(OC)/C=C\C=C(/C)C(=O)NC(=CC1=O)C2=O (some centres not stated) : call = ?
No
